Source listed as paper PMC10247784.

Target: mouse Tas2r108 (Mus musculus, UniProt Q9JKT3)
Construct: expressed in transfected cells; host or cells: HEK293T-Gα16gust44
Sequence (Q9JKT3 whole entry): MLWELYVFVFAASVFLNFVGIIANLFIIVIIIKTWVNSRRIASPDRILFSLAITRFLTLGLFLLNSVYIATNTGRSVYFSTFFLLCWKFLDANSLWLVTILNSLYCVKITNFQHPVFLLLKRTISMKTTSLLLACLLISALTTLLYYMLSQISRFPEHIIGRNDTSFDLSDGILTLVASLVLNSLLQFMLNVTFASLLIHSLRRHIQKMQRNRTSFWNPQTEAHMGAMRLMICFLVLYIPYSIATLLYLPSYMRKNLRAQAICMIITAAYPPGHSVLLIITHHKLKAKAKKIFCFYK
Experiment: Calcium imaging assay (FLIPR), HEK293T-Gα16gust44 cells transfected with mouse Tas2r108
Format: cell-based
Conditions: Time 323.562 s
Metric Name: RLU (RLU)

>>> endpoint_value("C[C@H](CCC(=O)O)[C@H]1CC[C@H]2[C@@H]3CC[C@@H]4C[C@H](O)CC[C@]4(C)[C@H]3C[C@H](O)[C@]12C [Deoxycholic Acid, deoxycholic acid]")
427.048
>>> endpoint_value("C[C@H](CCC(=O)NCC(=O)O)[C@H]1CC[C@H]2[C@@H]3[C@H](O)C[C@@H]4C[C@H](O)CC[C@]4(C)[C@H]3C[C@H](O)[C@]12C [Glycocholic Acid, glycocholic acid]")
171.186
>>> endpoint_value("C[C@H](CCC(=O)O)[C@H]1CC[C@H]2[C@@H]3[C@H](O)C[C@@H]4C[C@H](O)CC[C@]4(C)[C@H]3C[C@H](O)[C@]12C [Cholic Acid, cholic acid]")
182.257
>>> endpoint_value("C[C@H](CCC(=O)NCCS(=O)(=O)O)[C@H]1CC[C@H]2[C@@H]3[C@H](O)C[C@@H]4C[C@H](O)CC[C@]4(C)[C@H]3C[C@H](O)[C@]12C [Taurocholic Acid, taurocholic acid]")
251.038
